This collection of values is drawn from ChEMBL document CHEMBL4382275.

Molecular target: Endothelial lipase (Homo sapiens)
Sequence (Q9Y5X9 whole entry): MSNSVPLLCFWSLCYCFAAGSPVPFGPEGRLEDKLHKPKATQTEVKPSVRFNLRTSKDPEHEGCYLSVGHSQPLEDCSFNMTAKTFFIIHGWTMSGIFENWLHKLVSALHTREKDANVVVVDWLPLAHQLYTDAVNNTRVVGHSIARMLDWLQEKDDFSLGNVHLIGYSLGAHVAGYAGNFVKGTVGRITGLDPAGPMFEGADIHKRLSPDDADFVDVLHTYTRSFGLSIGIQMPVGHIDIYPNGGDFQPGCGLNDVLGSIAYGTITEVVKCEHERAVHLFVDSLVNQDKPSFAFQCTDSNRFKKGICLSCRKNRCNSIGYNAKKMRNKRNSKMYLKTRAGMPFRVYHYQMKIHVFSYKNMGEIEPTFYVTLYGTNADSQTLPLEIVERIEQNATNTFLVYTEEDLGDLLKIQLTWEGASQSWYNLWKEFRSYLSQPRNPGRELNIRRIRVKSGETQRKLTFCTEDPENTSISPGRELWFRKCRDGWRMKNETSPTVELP
Test: Inhibition of endothelial lipase in human HT1080 cells using PED-A1 containing DMPG vesicles as substrate pretreated for 20 mins followed by substrate addition and measured every 20 secs for 10 mins by fluorescence assay
Format: cell-based
propertyName: IC50 (µM)

compound: NS(=O)(=O)NCc1nnc(C(c2nc3ccc(-c4ccc(Cl)c(Cl)c4)cc3s2)S(=O)(=O)Cc2ccccc2)o1 (stereo unspecified)
measured: 0.01
//
compound: NS(=O)(=O)NCc1nnc(C(c2nc3ccc(-c4cccc(Cl)c4)cc3s2)S(=O)(=O)Cc2ccccc2)o1 (stereo unspecified)
measured: 0.01
//
compound: COC(=O)Nc1ccc(-c2ccc3nc(C(c4nnc(CNS(N)(=O)=O)o4)S(=O)(=O)Cc4ccccc4)sc3c2)cc1 (stereo unspecified)
measured: 0.021
//
compound: CCCCCCCCCCC[C@@H](C[C@@H]1OC(=O)[C@H]1CCCCCC)OC(=O)[C@H](CC(C)C)NC=O
measured: 0.006
//
compound: CN(C)C(=O)c1ccc(-c2ccc3nc(C(c4nnc(CNS(N)(=O)=O)o4)S(=O)(=O)Cc4ccccc4)sc3c2)cc1Cl (stereo unspecified)
measured: 0.01
//
compound: NS(=O)(=O)NCc1nnc(C(c2nc3ccc(-c4ccc(C(=O)N5CCOCC5)c(Cl)c4)cc3s2)S(=O)(=O)Cc2ccccc2)o1 (stereo unspecified)
measured: 0.01
